- assayedSystem: Melanocyte-stimulating hormone receptor (Mus musculus, UniProt Q01727)
- Sequence (Q01727 whole entry): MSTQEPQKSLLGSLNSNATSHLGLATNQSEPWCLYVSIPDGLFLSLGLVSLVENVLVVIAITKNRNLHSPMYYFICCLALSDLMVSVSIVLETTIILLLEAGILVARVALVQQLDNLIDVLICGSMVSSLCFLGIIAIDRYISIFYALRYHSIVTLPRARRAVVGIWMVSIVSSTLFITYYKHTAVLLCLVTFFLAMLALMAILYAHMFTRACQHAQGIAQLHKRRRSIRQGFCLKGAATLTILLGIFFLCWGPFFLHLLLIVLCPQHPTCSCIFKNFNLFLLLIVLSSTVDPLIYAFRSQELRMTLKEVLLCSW
- experimentDescription: Agonist activity at mouse MC1R expressed in HEK293 cells incubated for 2 hrs by AlphaScreen cAMP assay
- Type: functional, cell-based
Square brackets hold non-standard residues; d marks the D form. Peptide text beside a SMILES is read from it. hPhe = N[C@@H](CCc1ccccc1)C(=O)O; Nle = CCCC[C@H](N)C(=O)O; Dap = NC[C@H](N)C(=O)O
measuredParameter: EC50

-- ask Give the reported EC50 for this compound. CCCC[C@@H]1NC(=O)[C@H](C)NC(=O)[C@H](CCCNC(=N)N)NC(=O)[C@H](Cc2ccccc2)NC(=O)[C@H](Cc2ccccc2)NC(=O)[C@H](CCCNC(=N)N)NC(=O)[C@@H]2CCCN2C(=O)[C@H]2CCCN2C1=O (cyclo(RFFRA[Nle][dP]P))
-- reply > 100 µM

-- ask Give the reported EC50 for this compound. CCCC[C@@H]1NC(=O)[C@H](CO)NC(=O)[C@H](CN)NC(=O)[C@H](CCc2ccccc2)NC(=O)[C@H](Cc2ccccc2)NC(=O)[C@H](CCCNC(=N)N)NC(=O)[C@@H]2CCCN2C(=O)[C@H]2CCCN2C1=O (cyclo(RF[hPhe][Dap]S[Nle][dP]P))
-- reply > 100 µM

====

Hi there, I'd appreciate the recorded Activity for every entry that follows.
- assayedSystem: Melanocortin receptor 4 (Mus musculus)
- experimentDescription: Agonist activity at mouse MC4R expressed in HEK293 cells at 100 uM incubated for 2 hrs by AlphaScreen cAMP assay relative to untreated control
- Assay type: functional, cell-based
Square brackets hold non-standard residues; d marks the D form. Peptide text beside a SMILES is read from it. hPhe = N[C@@H](CCc1ccccc1)C(=O)O; Nle = CCCC[C@H](N)C(=O)O; Dap = NC[C@H](N)C(=O)O

-- ask Tell me its Activity on Melanocortin receptor 4 (Mus musculus): N=C(N)NCCC[C@@H]1NC(=O)[C@H](CCc2ccccc2)NC(=O)[C@H](Cc2ccccc2)NC(=O)[C@H](CCCNC(=N)N)NC(=O)[C@@H]2CCCN2C(=O)[C@H]2CCCN2C(=O)[C@H](Cc2ccccc2)NC(=O)[C@H](CO)NC1=O (cyclo(RF[hPhe]RSF[dP]P))
-- reply < 20%

-- ask Tell me its Activity on Melanocortin receptor 4 (Mus musculus): CCCC[C@@H]1NC(=O)[C@H](CO)NC(=O)[C@H](CCCNC(=N)N)NC(=O)[C@H](CCc2ccccc2)NC(=O)[C@H](Cc2ccccc2)NC(=O)[C@H](CCCNC(=N)N)NC(=O)[C@@H]2CCCN2C(=O)[C@H]2CCCN2C1=O (cyclo(RF[hPhe]RS[Nle][dP]P))
-- reply < 20%

-- ask Tell me its Activity on Melanocortin receptor 4 (Mus musculus): N=C(N)NCCC[C@@H]1NC(=O)[C@H](Cc2ccccc2)NC(=O)[C@H](Cc2ccccc2)NC(=O)[C@H](CCCNC(=N)N)NC(=O)[C@@H]2CCCN2C(=O)[C@H]2CCCN2C(=O)[C@H](Cc2ccccc2)NC(=O)[C@H](CO)NC1=O
-- reply < 20%

-- ask Tell me its Activity on Melanocortin receptor 4 (Mus musculus): CCCC[C@@H]1NC(=O)[C@H](C)NC(=O)[C@H](CN)NC(=O)[C@H](Cc2ccccc2)NC(=O)[C@H](Cc2ccccc2)NC(=O)[C@H](CCCNC(=N)N)NC(=O)[C@@H]2CCCN2C(=O)[C@H]2CCCN2C1=O
-- reply < 20%

-- ask Tell me its Activity on Melanocortin receptor 4 (Mus musculus): CCCC[C@@H]1NC(=O)[C@H](CO)NC(=O)[C@H](CC(N)=O)NC(=O)[C@H](CCc2ccccc2)NC(=O)[C@H](Cc2ccccc2)NC(=O)[C@H](CCCNC(=N)N)NC(=O)[C@@H]2CCCN2C(=O)[C@H]2CCCN2C1=O (cyclo(RF[hPhe]NS[Nle][dP]P))
-- reply < 20%

-- ask Tell me its Activity on Melanocortin receptor 4 (Mus musculus): CCCC[C@@H]1NC(=O)[C@H](CO)NC(=O)[C@H](CN)NC(=O)[C@H](Cc2ccccc2)NC(=O)[C@H](Cc2ccccc2)NC(=O)[C@H](CCCNC(=N)N)NC(=O)[C@@H]2CCCN2C(=O)[C@H]2CCCN2C1=O (cyclo(RFF[Dap]S[Nle][dP]P))
-- reply < 20%

-- ask Tell me its Activity on Melanocortin receptor 4 (Mus musculus): C[C@@H]1NC(=O)[C@H](CCCNC(=N)N)NC(=O)[C@H](CCc2ccccc2)NC(=O)[C@H](Cc2ccccc2)NC(=O)[C@H](CCCNC(=N)N)NC(=O)[C@@H]2CCCN2C(=O)[C@H]2CCCN2C(=O)[C@H](Cc2ccccc2)NC1=O (cyclo(RF[hPhe]RAF[dP]P))
-- reply < 20%

-- ask Tell me its Activity on Melanocortin receptor 4 (Mus musculus): CCCC[C@@H]1NC(=O)[C@H](C)NC(=O)[C@H](CC(N)=O)NC(=O)[C@H](CCc2ccccc2)NC(=O)[C@H](Cc2ccccc2)NC(=O)[C@H](CCCNC(=N)N)NC(=O)[C@@H]2CCCN2C(=O)[C@H]2CCCN2C1=O
-- reply < 20%
